Attribution: ChEMBL document CHEMBL2331126

In this section, each of the compounds is paired with its reported pIC50.
# Tested on: CCRF-CEM
# experimental.protocol: Cytotoxicity against human CEM cells
# Type: cell-based
pIC50: −log10 of the molar value.

{"columns": ["compound", "limit.operator", "pIC50"],
 "data": [
  ["CCCCCCCCCCOC(=O)c1cc(O)c(O)c(O)c1 [DECYL GALLATE]", "=", 5.01],
  ["CCCCCCCCOC(=O)c1cc(O)c(O)c(O)c1 [OCTYL_GALLATE]", "=", 4.30],
  ["CCCCCCCCCCCCCCOC(=O)c1cc(O)c(O)c(O)c1 [TETRADECYL GALLATE]", "<", 4.30],
  ["CCCCCCCCCCCCOC(=O)c1cc(O)c(O)c(O)c1 [DODECYL GALLATE]", "=", 4.32]
]}
